target-or-system: purified human IDO protein (Homo sapiens, UniProt P14902)
Construct: 2 extra amino acids (linker from the BglII cloning site of pQE70); made in house; host or cells: E. coli M15(pREP4) with plasmid pQE70-hIDO
Sequence (P14902 whole entry P110S/E119G): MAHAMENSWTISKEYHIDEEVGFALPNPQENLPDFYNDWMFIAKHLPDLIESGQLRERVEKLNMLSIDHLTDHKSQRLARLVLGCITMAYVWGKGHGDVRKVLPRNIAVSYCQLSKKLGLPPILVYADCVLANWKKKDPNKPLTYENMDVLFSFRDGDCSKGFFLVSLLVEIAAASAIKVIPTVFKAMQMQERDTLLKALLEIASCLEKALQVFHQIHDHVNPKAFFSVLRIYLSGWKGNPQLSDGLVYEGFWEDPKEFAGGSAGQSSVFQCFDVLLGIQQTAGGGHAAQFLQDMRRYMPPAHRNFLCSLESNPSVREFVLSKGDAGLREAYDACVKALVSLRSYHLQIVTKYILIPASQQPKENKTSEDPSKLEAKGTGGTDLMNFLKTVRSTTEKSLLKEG
experiment-notes: Enzymatic IDO assay (kynurenine production, absorbance at 480 nm)
Type: biochemical
measurement-conditions: recombinant human IDO; values reported in ranges; read-out: hIDO IC50
In this section, each of the compounds is paired with its reported IC50.
property-measured: IC50

> print(dat)
                                    compound  property.measured  measured.result
 1  CC(=O)NCc1ccccc1-c1c[nH]cn1 [compound 1207, N-(2-(1H-imidazol-4-yl)benzyl)acetamide]               IC50         > 100 µM
 2  CCC(O)(COc1ccccc1-c1c[nH]cn1)c1cccs1 (stereo not drawn) [compound 976]               IC50     10 to 100 µM
 3  Oc1ccc(Cl)cc1-c1cnc2cnccn12 [compound 1038]               IC50         > 100 µM
 4  CC(C)(C)OC(=O)Nc1ccc(CCOc2ccccc2-c2c[nH]cn2)cc1 [compound 1046]               IC50       1 to 10 µM
 5  O=C(Nc1ccccc1)Nc1ccc(CCOc2ccccc2-c2c[nH]cn2)c(Cl)c1 [compound 1347]               IC50           < 1 µM
 6  CC(COc1ccccc1-c1c[nH]cn1)c1ccccc1Cl (stereo not drawn) [compound 1109]               IC50     10 to 100 µM
 7  O=C(Cc1ccccc1)Nc1ccc(CCOc2ccccc2-c2cnc[nH]2)cc1 [compound 1102]               IC50           < 1 µM
 8  CC(COc1ccccc1-c1c[nH]cn1)c1ccccc1 (stereo not drawn) [compound 978]               IC50     10 to 100 µM
 9  CN(C)c1ccc(CCOc2ccccc2-c2c[nH]cn2)cc1 [compound 1181]               IC50     10 to 100 µM
10  Nc1nc(CC(=O)Nc2ccc(CCOc3ccccc3-c3c[nH]cn3)cc2)cs1 [compound 1257]               IC50       1 to 10 µM
11  Oc1cccc(OCCC2CC=CCC2)c1-c1cnc[nH]1 (stereo not drawn) [compound 1182]               IC50       1 to 10 µM
12  c1ccc(-c2c[nH]cn2)c(OCCc2ccsc2)c1 [compound 1203]               IC50     10 to 100 µM
13  c1ccc(-c2c[nH]cn2)c(OCCc2csc3ccccc23)c1 [compound 1202]               IC50     10 to 100 µM
14  O=C1CCCCN1c1ccc(CCOc2ccccc2-c2c[nH]cn2)cc1 [compound 1230]               IC50     10 to 100 µM
15  CC(=O)N(Cc1ccccc1)Cc1cccc(COc2ccccc2-c2c[nH]cn2)c1 [compound 959]               IC50     10 to 100 µM
16  Clc1ccc(COc2ccccc2-c2c[nH]cn2)cc1Cl [compound 1003]               IC50       1 to 10 µM
17  Oc1cc(Cl)cc(-c2cnc[nH]2)c1O [compound 1221]               IC50       1 to 10 µM
18  COc1ncccc1-c1c[nH]cn1 [compound 1012, 3-(1H-imidazol-4-yl)-2-methoxypyridine]               IC50         > 100 µM
19  O=C(Cc1cncnc1)Nc1ccc(CCOc2ccccc2-c2c[nH]cn2)c(Cl)c1 [compound 1366]               IC50           < 1 µM
20  Clc1cccc(-c2cnc[nH]2)c1OCCC1CCCCC1 [compound 1177]               IC50       1 to 10 µM
21  O=S(=O)(Cc1ccccc1)Nc1ccc(CCOc2ccccc2-c2c[nH]cn2)cc1 [compound 1151]               IC50       1 to 10 µM
22  O=C(O)c1ccccc1CCOc1ccccc1-c1c[nH]cn1 [compound 1325]               IC50         > 100 µM
23  c1cc(-c2c[nH]cn2)c2nsnc2c1 [compound 962]               IC50     10 to 100 µM
24  O=C(Nc1ccc(CCOc2ccccc2-c2c[nH]cn2)cc1)Nc1ccccc1[N+](=O)[O-] [compound 1192]               IC50           < 1 µM
25  CC(C)(C)CC(=O)N1CCC(CCOc2ccccc2-c2c[nH]cn2)CC1 [compound 1143]               IC50     10 to 100 µM
26  CCOC(=O)Nc1ccc(CCOc2ccccc2-c2c[nH]cn2)cc1 [compound 1104]               IC50       1 to 10 µM
27  c1ccc(-c2c[nH]cn2)c(OCCc2ccc(N3CCCCC3)cc2)c1 [compound 1223]               IC50     10 to 100 µM
28  O=C(CC1CCOCC1)Nc1ccc(CCOc2ccccc2-c2c[nH]cn2)c(F)c1 [compound 1295]               IC50           < 1 µM
29  COC(=O)c1ccccc1CCOc1ccccc1-c1c[nH]cn1 [compound 934]               IC50         > 100 µM
30  O=C(Cc1cnccn1)Nc1ccc(CCOc2ccccc2-c2c[nH]cn2)cc1 [compound 1156]               IC50       1 to 10 µM
